Biological target: T1, human GPC3-His protein (human, UniProt P51654 25-559)
T1 construct: also called human GPC3 protein; not shown: His tag
Assay: SPR, antibody captured on Protein A chip, human GPC3-His analyte;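 further: measured at 25 °C flow cell, human GPC3-His injected at five concentrations up to 200 nM, 240 s association, up to 600 s dissociation, double-referenced, fitted to Langmuir 1:1 model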
Test Readout: Kd (nM)

binder="F1.41.17 (antibody, human IgG1, kappa, V domains shown, Human-murine chimeric antibody) VH: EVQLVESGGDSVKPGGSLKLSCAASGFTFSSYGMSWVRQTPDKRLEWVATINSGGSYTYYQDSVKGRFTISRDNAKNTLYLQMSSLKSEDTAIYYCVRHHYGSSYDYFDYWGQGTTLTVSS VL: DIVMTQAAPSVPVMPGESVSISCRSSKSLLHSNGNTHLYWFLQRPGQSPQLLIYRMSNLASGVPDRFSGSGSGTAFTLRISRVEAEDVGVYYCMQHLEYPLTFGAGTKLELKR" test_result=7.91
binder="F1.145.22 (antibody, human IgG1, kappa, V domains shown, Human-murine chimeric antibody) VH: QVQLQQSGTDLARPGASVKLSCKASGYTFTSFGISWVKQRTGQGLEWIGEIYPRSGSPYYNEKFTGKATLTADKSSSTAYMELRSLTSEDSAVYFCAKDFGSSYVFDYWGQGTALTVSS VL: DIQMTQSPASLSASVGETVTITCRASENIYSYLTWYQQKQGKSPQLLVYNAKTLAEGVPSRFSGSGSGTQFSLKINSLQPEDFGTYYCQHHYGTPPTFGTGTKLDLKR" test_result=0.754
binder="F1.62.9 (antibody, human IgG1, kappa, V domains shown, Human-murine chimeric antibody) VH: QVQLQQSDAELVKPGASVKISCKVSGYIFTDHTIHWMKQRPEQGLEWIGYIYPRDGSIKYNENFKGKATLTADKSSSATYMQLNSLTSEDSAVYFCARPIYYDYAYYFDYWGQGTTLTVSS VL: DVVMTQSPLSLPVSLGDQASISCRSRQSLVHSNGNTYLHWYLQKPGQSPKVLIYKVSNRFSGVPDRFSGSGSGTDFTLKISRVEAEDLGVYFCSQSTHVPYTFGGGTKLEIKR" test_result=46
